I'd be grateful if you could share measured koff for these entries.
Molecular target: T1, Human Angiopoietin-2 full-length (hAng2) (human, UniProt O15123 19-496)
T1 construct: The cell assays used full-length hAng2 from R&D Systems; also called human Ang2; A2
T1 sequence: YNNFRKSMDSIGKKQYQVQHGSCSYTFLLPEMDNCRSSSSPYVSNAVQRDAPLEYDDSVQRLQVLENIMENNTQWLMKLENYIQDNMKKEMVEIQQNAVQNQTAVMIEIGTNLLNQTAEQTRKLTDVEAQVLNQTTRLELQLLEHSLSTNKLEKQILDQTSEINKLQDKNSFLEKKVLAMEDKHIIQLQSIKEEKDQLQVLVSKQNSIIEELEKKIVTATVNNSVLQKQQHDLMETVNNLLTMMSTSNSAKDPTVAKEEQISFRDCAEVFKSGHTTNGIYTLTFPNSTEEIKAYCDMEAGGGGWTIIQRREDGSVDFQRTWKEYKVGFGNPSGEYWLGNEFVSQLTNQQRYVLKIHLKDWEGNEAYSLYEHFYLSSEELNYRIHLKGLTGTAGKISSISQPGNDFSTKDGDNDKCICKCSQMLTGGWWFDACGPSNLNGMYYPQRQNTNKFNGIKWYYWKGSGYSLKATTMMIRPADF
Assay: BLI (Octet), antibody fixed on AR2G sensor, hAng2 3.125-50 nM in solution, 1:1 global fit
Method: The affinity of humanized anti-Ang2 antibody against hAng2 was measured using Octet system (ForteBio). Specifically, buffer and samples were measured in total 200 μl/well using Black 96-well plates (96 well F-type black plates, Greiner). […] After the hydration, humanized anti-Ang2 antibody was diluted in 10 mM sodium acetate, pH 6.0 buffer at a concentration of 10 μg/ml, fixed on AR2G biosensor, and blocked with 1M ethanolamine. […]
Give your result in s⁻¹ as a bare value.

Problem: # koff lookup, item humanized anti-Ang2 antibody 4B9H21 (antibody, V domains shown, Full-length human IgG1) VH: QVQLVESGGGLVKPGGSLRLSCAASGFTFSDYYMYWVRQAPGKGLEWVSTISVGGSFTYYPDSVKGRFTISRDNAKNSLYLQMNSLRAEDTAVYYCARDWGLRPWFVYWGQGTLVTVSS VL: DIQMTQSPSSLSASVGDRVTITCKASQDVSTAVAWYQQKPGKAPKLLIYWASTRHTGVPSRFSGSGSGTDFTLTISSLQPEDFATYYCQQHYSTPPTFGQGTKVEIK
Result: 8.94e-06

Problem: Next up: humanized anti-Ang2 antibody 2C8H12 (antibody, V domains shown, Full-length human IgG1) VH: QVQLVQSGAEVKKPGASVKVSCKASGYTFTSYWMHWVRQAPGQGLEWMGMIDPSDSETRLNQKFKDRVTMTRDTSTSTVYMELSSLRSEDTAVYYCARRFYYGSDWYFDVWGQGTLVTVSS VL: DIQLTQSPSFLSASVGDRVSITCKASQDVGTAVAWYQQKPGKAPKLLIYWASTRHTGVPDRFSGSGSGTEFTLTISSLQPEDFATYYCQQYSSYPLTFGQGTKVEIK
Result: 1.33e-05

Problem: Next up: humanized anti-Ang2 antibody 2C8H43 (antibody, V domains shown, Full-length human IgG1) VH: QVQLVQSGAEVKKPGASVKVSCKASGYSFTSYWMHWVKQAPGQGLEWIGMIDPSDSETRLNQKFKDKASMTRDTSTSTVYMELSSLRSEDTAVYYCARRFYYGSDWYFDVWGQGTLVTVSS VL: DIQLTQSPSFLSASVGDRVSITCKASQDVGTAVAWYQQKPGKAPKLLIYWASTRHTGVPDRFSGSGSGTEFTLTISSLQPEDFADYFCQQYSSYPLTFGQGTKVEIK
Result: 2.65e-05

Problem: Next up: humanized anti-Ang2 antibody 2C8H53 (antibody, V domains shown, Full-length human IgG1) VH: QVQLVQSGAEVKKPGASVKVSCKASGYSFTSYWMHWVKQAPGQGLEWIGMIDPSDSETRLNQKFKDKASLTVDTSTSTVYMELSSLRSEDTAVYYCARRFYYGSDWYFDVWGQGTLVTVSS VL: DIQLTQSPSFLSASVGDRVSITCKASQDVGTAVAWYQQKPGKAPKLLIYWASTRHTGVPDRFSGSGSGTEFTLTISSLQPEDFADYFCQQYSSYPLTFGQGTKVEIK
Result: 3.11e-05

Problem: Next up: humanized anti-Ang2 antibody 4B9H11 (antibody, V domains shown, Full-length human IgG1) VH: QVQLVESGGGLVKPGGSLRLSCAASGFTFSDYYMYWIRQAPGKGLEWVSTISVGGSFTYYPDSVKGRFTISRDNAKNSLYLQMNSLRAEDTAVYYCARDWGLRPWFVYWGQGTLVTVSS VL: DIQMTQSPSSLSASVGDRVTITCKASQDVSTAVAWYQQKPGKAPKLLIYWASTRHTGVPSRFSGSGSGTDFTLTISSLQPEDFATYYCQQHYSTPPTFGQGTKVEIK
Result: 1.58e-06
